Hello, the source for this data is PubChem BioAssay AID248, in case you need it.

# Test system: L1210 leukemia ip in BDF1 mice, survival T/C
# assay notes: NCI In Vivo Anticancer Drug Screen. Data for tumor model L1210 Leukemia (intraperitoneal) in B6D2F1 (BDF1) mice
# condition notes: endpoint: mean survival time; dose: 100.0 mg/kg/injection; schedule: Q01DX009 (ip); vehicle: other; higher = longer survival
Inconclusive results and toxic doses are left out.
Consider the following compounds; for each one, report its T/C.

-- ask Need T/C of "CC(C)=CC(=O)OC(=O)C=C(C)C" , thanks.
-- reply 105 % of control

-- ask // repeat for "COc1ccc(Cc2ccccc2)c(O)c1" and report
-- reply 93 % of control

-- ask // repeat for "Cc1cccc(Cl)c1NC(=O)C(C)C" and report
-- reply 101 % of control

-- ask // repeat for "c1ccc(CN2CCn3nccc32)cc1" and report
-- reply 104 % of control

###

Consider the following compounds; for each one, report its T/C.
# System: L1210 leukemia ip in BDF1 mice, survival T/C
# assay notes: NCI In Vivo Anticancer Drug Screen. Data for tumor model L1210 Leukemia (intraperitoneal) in B6D2F1 (BDF1) mice
# condition notes: endpoint: mean survival time; dose: 3.12 mg/kg/injection; schedule: Q01DX009 (ip); vehicle: saline; higher = longer survival
Toxic doses and inconclusive results are not listed.

-- ask Need T/C of "C=C[P+](c1ccccc1)(c1ccccc1)c1ccccc1" , thanks.
-- reply 93 % of control

-- ask // repeat for "CCCCCCCCCCCC[N+](C)(C)Cc1ccccc1" and report
-- reply 111 % of control

-- ask // repeat for "C[N+](C)(C)Cc1ccccc1" and report
-- reply 91 % of control

-- ask // repeat for CC(Cc1ccccc1)N(C)N (stereo not given) and report
-- reply 102 % of control

-- ask // repeat for "CN(C)CCCN1c2ccccc2CCc2ccc(Cl)cc21" and report
-- reply 97 % of control

###

# Tested on: L1210 leukemia ip in BDF1 mice, survival T/C
# assay notes: NCI In Vivo Anticancer Drug Screen. Data for tumor model L1210 Leukemia (intraperitoneal) in B6D2F1 (BDF1) mice
# condition notes: endpoint: mean survival time; dose: 400.0 mg/kg/injection; schedule: Q01DX001 (ip); vehicle: saline; higher = longer survival
Inconclusive results and toxic doses are left out.
Consider the following compounds; for each one, report its T/C.

-- ask Need T/C of "CC(C)(CBr)C(=O)O" , thanks.
-- reply 100 % of control

-- ask // repeat for "COc1ccccc1CN1CCCN(Cc2ccccc2OC)C1c1cc(Cl)ccc1O" and report
-- reply 101 % of control

-- ask // repeat for "N#CC(Cc1ccccc1)(c1ccccc1)c1ccccc1" and report
-- reply 97 % of control

-- ask // repeat for NC1CCC(Cl)CC1 (stereo not drawn) and report
-- reply 92 % of control

-- ask // repeat for CC1C(O)CN1C(C)(C)C (stereo not drawn) and report
-- reply 108 % of control

-- ask // repeat for CCCC1CC=CCC12C(=O)NC(=O)NC2=O (stereo not drawn) and report
-- reply 97 % of control

-- ask // repeat for CC1=CC(O)Nc2c(CBr)cccc21 (stereo not drawn) and report
-- reply 91 % of control

-- ask // repeat for "CCCCNP(=S)(NCCCC)c1ccccc1" and report
-- reply 95 % of control

-- ask // repeat for "CC(=O)C(C(C)=O)C(C)(C)C" and report
-- reply 95 % of control

-- ask // repeat for "CC(C)(C)OC(=O)C1=CNCCC1" and report
-- reply 105 % of control

-- ask // repeat for "Clc1nc2ccccc2[nH]1" and report
-- reply 110 % of control

-- ask // repeat for OCC1OC(n2cnc3c(=S)nc[nH]c32)CC1O (stereo not drawn) and report
-- reply 121 % of control

-- ask // repeat for "Cc1nnnn1C" and report
-- reply 97 % of control

-- ask // repeat for O=C(Nc1cccc(Cl)c1)C1CCCC1=Nc1cccc(Cl)c1 (stereo not drawn) and report
-- reply 94 % of control

-- ask // repeat for "CC(=O)SCCCON1C(=O)c2ccccc2C1=O" and report
-- reply 102 % of control

-- ask // repeat for "CCOC(=O)NCCO" and report
-- reply 97 % of control

-- ask // repeat for CC(=O)N(c1ccccc1)C(C(=O)c1ccccc1)c1ccccc1 (stereo not drawn) and report
-- reply 98 % of control

-- ask // repeat for "Cc1csc2ccc([N+](=O)[O-])cc12" and report
-- reply 101 % of control

-- ask // repeat for "CC(CCN)(CCN)[N+](=O)[O-]" and report
-- reply 93 % of control

-- ask // repeat for "CC(=N/NC(N)=S)/C(C)=N/NC(N)=S" and report
-- reply 101 % of control

-- ask // repeat for "c1cc2cc(c1)CCc1cccc(c1)CC2" and report
-- reply 94 % of control

-- ask // repeat for O=C1c2c(O)cccc2C(C2OC(CO)C(O)C(O)C2O)c2cc(CO)cc(O)c21 (stereo not drawn) and report
-- reply 104 % of control

-- ask // repeat for "CSc1n[nH]c(=O)[nH]c1=O" and report
-- reply 94 % of control

-- ask // repeat for CN(C)C(C#N)C(=O)c1ccccc1 (stereo not drawn) and report
-- reply 93 % of control

-- ask // repeat for "C#CC(O)(c1ccccc1)c1ccccc1" and report
-- reply 100 % of control

-- ask // repeat for "[B-][NH2+]CC[NH2+][B-]" and report
-- reply 117 % of control

-- ask // repeat for "C(=N\Nc1c2ccccc2nc2ccccc12)/c1ccc2c(c1)OCO2" and report
-- reply 89 % of control

-- ask // repeat for Cc1ccc(C2(CO)OCC(O)C(O)C2O)cc1 (stereo not drawn) and report
-- reply 98 % of control
